Target: human hepcidin-25 (L-peptide) (Homo sapiens) (UniProt P81172)
Sequence: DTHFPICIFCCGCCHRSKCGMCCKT
Assay: SPR
Conditions: L-RNA; 5'-40 kDa PEG; 37 C, 1 mM Mg, 1 mM Ca
Experimental endpoint: pKd
Note on pKd: it is the negative log10 of concentration, concentration in mol/L.

Input: What is its pKd for human hepcidin-25 (L-peptide) (Homo sapiens) (UniProt P81172)? Entry: GCACUCGUAAAGUAGAGGGACCCAGUCCGGCGUGAUAGUGCCGAGUGC [223-C5-001-5'-PEG]
Output: 8.35

Input: What is its pKd for human hepcidin-25 (L-peptide) (Homo sapiens) (UniProt P81172)? Entry: GGCCGGACAGCCGGGGGACACCAUAUACAGACUACGAUACGGCC [238-C4-006-5'-PEG]
Output: 9.12

Input: What is its pKd for human hepcidin-25 (L-peptide) (Homo sapiens) (UniProt P81172)? Entry: GCGCCGUAUGGGAUUAAGUAAAUGAGGAGUUGGAGGAAGGGCGC [238-D4-008-5'-PEG (NOX-H94)]
Output: 9.19

Input: What is its pKd for human hepcidin-25 (L-peptide) (Homo sapiens) (UniProt P81172)? Entry: GCUGUGUAAAGUAGAGGACAAUUGUCGGCGUGAUAGUGCCACAGC [229-B1-002-5'-PEG]
Output: 8.72

Input: What is its pKd for human hepcidin-25 (L-peptide) (Homo sapiens) (UniProt P81172)? Entry: GCGCGCGUAUGGGAUUAAGUAAAUGAGGAGUUGGAGGAAGGCGCGC [238-D4-002-5'-PEG]
Output: 9.28

----------
Target: human hepcidin-25 (L-peptide) (Homo sapiens)
Sequence: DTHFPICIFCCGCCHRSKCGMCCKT
Assay: SPR
Conditions: L-RNA; 37 C, data not shown
Experimental endpoint: Kd (nM)
Just the number in nM, nothing appended.

Input: What is its Kd for human hepcidin-25 (L-peptide) (Homo sapiens)? Entry: CGUGUGUAAAGUAGAGGACAAUUGUCGGCGUGAUAGUGCCACACG [229-B1-001 (L-RNA)]
Output: 1.25

----------
Molecular target: human hepcidin-25 (L-peptide) (Homo sapiens)
Sequence: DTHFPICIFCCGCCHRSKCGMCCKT
Test: SPR
Details: L-RNA; 37 C, 1 mM Mg, 1 mM Ca
Experimental endpoint: Kd (nM)
Just the number in nM, nothing appended.

Input: Record request: Kd value, item AGCGUGUCGUAUGGGAUUAAGUAAAUGAGGAGUUGGAGGAAGGGCAUGCU [238-D4-001 (L-RNA)]
Output: 0.51

Input: Record request: Kd value, item GCUGUGUAAAGUAGAGGACAAUUGUCGGCGUGAUAGUGCCACAGC [229-B1-002 (L-RNA)]
Output: 1.47

Input: Record request: Kd value, item AGGCUCGGACAGCCGGGGGACACCAUAUACAGACUACGAUACGGGCCU [238-C4-001 (L-RNA)]
Output: 0.9

Input: Record request: Kd value, item GCACUCGUAAAGUAGAGGGACCCAGUCCGGCGUGAUAGUGCCGAGUGC [223-C5-001 (L-RNA)]
Output: 2.7
